Reported z-score by item:
biological target: NADPH oxidase 5 (Homo sapiens); test: NOX5-dependent H2O2 signal modulators, primary screen, NOX inhibitor project, cell-based, HEK293-NOX5, Amplex Red fluorescence (AID 1161); details: HEK293-NOX5, ionomycin, 45 min, higher = more signal
Answer as a number with no unit attached.

In: Endpoint output: z-score of O=C(NN=C1C[C@@H](O)[C@@H](O)[C@@H]2[C@@H]3C(=O)N(Cc4ccccc4)C(=O)[C@@H]3CC[C@H]12)OCc1ccccc1 . Value?
Out: -0.0528

In: What do you get for CCOC(=O)[C@H](Cc1ccccc1)NC(=O)CCC1CC(OC(=O)NCCc2ccc(F)cc2)CC2(CCCC(COC(=O)NCCOc3ccccc3)O2)O1 (stereo partly drawn) ?
Out: 0.471

In: What do you get for C=CC[C@@H]1C=C[C@H](ON=CC[C@@H]2C=C[C@H](OC(C)=O)[C@@H](COC(C)=O)O2)[C@@H](CO)O1 ?
Out: 1.03

In: What do you get for O=C1[C@H]2[C@H]3[C@H](O)[C@H](O)CC(=NOCc4ccccc4)[C@@H]3CC[C@H]2C(=O)N1c1cccc(Oc2ccccc2)c1 ?
Out: -1.18

In: What do you get for CCC1=NOC(CCC2CC(OC(=O)NCc3cccc4c3OCO4)CC3(CCCC(COC(=O)NCCc4ccc(Cl)cc4)O3)O2)C1 (stereo not drawn) ?
Out: 0.984

----------
tested on: Noggin (protein binding on small-molecule microarray); test: Noggin binders on small-molecule microarray, primary screen, biochemical, 635/667 nm fluorescence (AID 1095); settings: 635 nm fluorescence, higher = more signal;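 further: score merges 667 nm feature fluorescence with signal to noise over triplicate slides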
Could you label it Satisfied if measured composite z-score is 0.5 or higher, and Not satisfied otherwise?

A selection of reference data follows.
CCN1C(=O)[C@H]2[C@@H]3C(=CC[C@H]2C1=O)C(=O)[C@H]1O[C@H]1[C@H]3O ... Satisfied
CC(C)CON=C1C[C@@H](O)[C@@H](O)[C@@H]2[C@@H]3C(=O)N(C(C)(C)C)C(=O)[C@@H]3CC[C@@H]12 ... Satisfied
CCOC(=O)[C@H](CC(C)C)NC(=O)CCC1CC(OC(=O)NCc2ccc3c(c2)OCO3)CC2(CCCC(COC(=O)NCCc3ccccc3OC)O2)O1 (stereo partly specified) ... Not satisfied
CC(=O)OC[C@H]1O[C@H](CC=NO[C@@H](C)c2cn([C@H](CO)Cc3ccccc3)nn2)C=C[C@@H]1OC(C)=O ... Not satisfied
C[C@]12CCC3c4ccc(OCC5CO5)cc4CCC3C1CC[C@@H]2O (stereo partly specified) ... Not satisfied
CCOC(=O)CCN1C(=O)[C@H]2[C@H]3[C@H](O)[C@H](O)CC(=NO[C@@H]4O[C@H](CO)[C@@H](O)[C@H](O)[C@H]4O)[C@H]3CC[C@H]2C1=O ... Not satisfied

In: Could you verify whether the entry COc1ccc(COC(=O)NN=C2C[C@@H](O)[C@@H](O)[C@@H]3[C@@H]4C(=O)N(C(C)(C)C)C(=O)[C@@H]4CC[C@@H]23)cc1 shows composite z-score of no less than 0.5?
Out: Not satisfied

In: What do you get for CC(C)CN1CCc2nc(-c3ccccc3)c3c(c2C1)CO[C@@H](C)C3 ?
Out: Satisfied

In: What do you get for CO[C@H]1COC(=O)[C@H](C)COC(=O)[C@H](C)NC(=O)CC=C[C@H]1C ?
Out: Satisfied

In: What do you get for CSCC[C@@H]1NC(=O)CC=C[C@@H](C)COC(=O)[C@H](C)COC1=O ?
Out: Satisfied

----------
biological target: NADPH oxidase 5 (Homo sapiens); experiment: NOX5-dependent H2O2 signal modulators, primary screen, NOX inhibitor project, cell-based, HEK293-NOX5, Amplex Red fluorescence (AID 1161); conditions: HEK293-NOX5, ionomycin, 45 min, higher = more signal
Test Readout: z-score
Answer as a number with no unit attached.

CC(C)=CCCC(C)=CCON=C1C[C@@H](O)[C@@H](O)[C@@H]2[C@@H]3C(=O)N(C4CCCCC4)C(=O)[C@@H]3CC[C@H]12 ... -4.91

In: Endpoint output: z-score of CC(C)[C@H](NC(=O)OC(C)(C)C)[C@@H](O)CC(=O)C(C)(C)C . Value?
Out: 0.195

In: What do you get for COc1ccc(OC[C@@H]2CC3[C@@H](c4ccc(Br)cc4)[C@H](C)CC[C@H]3C(=O)O2)cc1 (stereo not given in full) ?
Out: -0.351

In: What do you get for C[C@H]1CC[C@H]2C(=O)N[C@H](Cc3ccccc3)C(=O)N2[C@@H]1c1ccccc1 ?
Out: -0.119

In: What do you get for COc1ccc(COC(=O)NN=C2C[C@@H](O)[C@@H](O)[C@@H]3[C@@H]4C(=O)N(C5CCCCC5)C(=O)[C@@H]4CC[C@@H]23)cc1 ?
Out: 0.391

In: What do you get for CCc1cc2c(nc1CC)CCN(CCC(C)=NO[C@@H]1O[C@H](COC(C)=O)[C@@H](OC(C)=O)[C@H](OC(C)=O)[C@H]1OC(C)=O)C2 ?
Out: 1.03

In: What do you get for CO[C@@H](C1CCCCC1)[C@@H](C)[C@H](OCc1cccc(Br)c1)[C@@H](C)CO ?
Out: -2.45

In: What do you get for CC1(C)O[C@H]2O[C@H]([C@H](O)CON=C3[C@H]4CCn5c(=O)n(-c6ccccc6)c(=O)n5[C@H]4[C@H](O)[C@@H]4O[C@H]34)[C@H](O)[C@H]2O1 ?
Out: -0.47

In: What do you get for CCN1C(=O)[C@H]2[C@H]3[C@H](O)[C@H](O)CC(=NNC(=O)OCc4ccccc4)[C@@H]3CC[C@H]2C1=O ?
Out: 0.296

In: What do you get for OC[C@H]1O[C@H](C#Cc2ccccc2)C=C[C@@H]1O ?
Out: 1.33

----------
Reported z-score by item:
test: Plasmodium falciparum growth inhibition, primary screen, strain 3D7, DAPI fluorescence, 100 nL (AID 1184);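 further: parasites grown inside human red blood cells in medium with human serum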; conditions: P. falciparum 3D7 growth, 3 d, higher = more signal
Answer as a number with no unit attached.

In: Endpoint output: z-score of C=CC[C@@H]1C=C[C@H](ON=C2C[C@@H](O)[C@@H](O)[C@@H]3[C@@H]4C(=O)N(CC)C(=O)[C@@H]4CC[C@@H]23)[C@@H](CO)O1 . Value?
Out: -0.689

In: What do you get for COc1ccc(O[C@H]2C=C[C@@H](C#Cc3ccccc3)O[C@@H]2CO)cc1 ?
Out: 0.284

In: What do you get for CCN1C(C)=C(C(=O)OC)[C@@H](c2ccccc2)N2C(=O)[C@](O)(C(=O)OC)CC(C(C)=O)=C12 ?
Out: 0.752

----------
biological target: Follistatin (Homo sapiens); experiment: follistatin binders on small-molecule microarrays, primary screen, biochemical, small-molecule microarray, 635/667 nm fluorescence (AID 1132); conditions: FST binding, 635 nm fluorescence, higher = more signal
Could you label it t if measured composite z-score is 0.7 or higher, and f otherwise?

A selection of reference data follows.
O=C1CCCC=C1C(O)COCc1ccccc1 (configuration not stated) ... f
COc1cccc([C@H]2Oc3ccc(OC)cc3C(=NOCC[C@@H]3C=C[C@H](OC(C)=O)[C@@H](COC(C)=O)O3)[C@@H]2O)c1 ... f
COC(=O)CC=C[C@@H](C)[C@@H](C=NOC[C@@H](O)COCc1ccco1)OC ... t
CO[C@H]1COC(=O)[C@H](C)COC(=O)[C@H](C)NC(=O)CC=C[C@H]1C ... t
CC(CCN1CCCc2nc(C)c(C)cc21)=NOC[C@@H](C)[C@H](OCc1ccccc1)C(C)C ... f

Now look at this entry.
In: Could you verify whether the entry O=C1[C@H]2[C@H]3[C@H](O)[C@H](O)CC(=NOCc4ccccc4)[C@@H]3CC[C@H]2C(=O)N1c1cccc(Oc2ccccc2)c1 shows composite z-score of no less than 0.7?
Out: f

----------
system: Neuregulin-1 EGF-like domain; test: binders of neuregulin-1 EGF-like domain, primary screen, biochemical, small-molecule microarray, 635 nm fluorescence (AID 1081); details: small-molecule microarray binding, higher = more signal;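 further: binding of the protein to compounds printed on small-molecule microarray slides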
Could you label it rule met if measured composite z-score is 0.6 or higher, and rule not met otherwise?

C[C@@H]1C=CCC(=O)OC[C@H](C)C(=O)N[C@@H](Cc2ccccc2)C(=O)OC1 ... rule not met
CC(C)(C)N1C(=O)[C@H]2[C@H]3[C@H](O)[C@H](O)CC(=NNC(=O)OCc4ccccc4)[C@H]3CC[C@H]2C1=O ... rule met
COc1ccc(COC(=O)NN=C2C[C@@H](O)[C@@H](O)[C@@H]3[C@@H]4C(=O)N(C5CCCCC5)C(=O)[C@@H]4CC[C@@H]23)cc1 ... rule not met
O=C1C2=CC[C@H]3C(=O)N(c4ccc(F)cc4F)C(=O)[C@H]3[C@H]2[C@H](O)[C@@H]2O[C@H]12 ... rule not met

In: Could you verify whether the entry CCOC(=O)CCN1C(=O)[C@H]2[C@@H]3C(=CC[C@H]2C1=O)C(=O)[C@H]1O[C@H]1[C@H]3O shows composite z-score of no less than 0.6?
Out: rule not met

In: What do you get for O=C1[C@H]2[C@H]3[C@H](O)[C@H](O)CC(=NOCc4ccccc4)[C@@H]3CC[C@H]2C(=O)N1c1cccc(Oc2ccccc2)c1 ?
Out: rule met

In: What do you get for CO[C@@H](C(C)C)[C@@H](C)C1OC(=O)CC1O (stereo partly specified) ?
Out: rule met

In: What do you get for COC(=O)[C@H](C)NC(=O)CCC1CC(OC(=O)NCc2ccc3c(c2)OCO3)CC2(CCCC(COC(=O)NCCc3ccc(Cl)cc3)O2)O1 (stereo partly specified) ?
Out: rule not met

In: What do you get for CON=C(C)CCC(=O)OC[C@H]1O[C@H](C#Cc2ccccc2)C=C[C@@H]1Oc1ccc(C)cc1 ?
Out: rule not met

In: What do you get for O=C1[C@H]2[C@H]3[C@H](O)[C@H](O)CC(=NOCc4ccccc4)[C@H]3CC[C@H]2C(=O)N1C1CCCCC1 ?
Out: rule met

In: What do you get for COC(=O)[C@H](C)NC(=O)CCC1CC(OC(=O)NCc2cccc3ccccc23)CC2(CCCC(COC(=O)NCCCN3CCCC3=O)O2)O1 (stereo partly specified) ?
Out: rule met

In: What do you get for CO[C@@H]1C=CCC(=O)N[C@@H](C)C(=O)OC[C@@H](OC)[C@H](C)C=CCC(=O)OC[C@H]1C ?
Out: rule not met

In: What do you get for CCOC(=O)[C@H](Cc1ccccc1)NC(=O)CCC1CC(OC(=O)NCc2ccc3c(c2)OCO3)CC2(CCCC(COC(=O)NCCOc3ccccc3)O2)O1 (stereo partly specified) ?
Out: rule met

In: What do you get for CC[C@@H](c1ccccc1)n1c(=O)n2n(c1=O)[C@H]1[C@H](O)[C@@H]3O[C@@H]3C(=NOCc3ccccc3)[C@H]1CC2 ?
Out: rule not met
